src = PubChem BioAssay (NCI)

Test system: ACHN renal
Test: NCI-60 one-dose screen, 48 h (100 = growth as untreated, 0 = no growth, -100 = all killed)
Settings: 10 µM unless noted
This is part of a sample that, as a whole, favours compounds with a hit. Of some 83,000 tested, about 20% had one in any assay.
growth under 50% gets 1 (yes), anything at or over 50% gets 0 (no).

For orientation, consider the following solved cases.
Nc1c(C(=O)Nc2ccccc2)sc2nc3c(cc12)CCCCC3	1 (yes)
O=C(CNc1ccc(Cl)cc1)Nc1ccc(-c2nc3ccccc3s2)cc1	1 (yes)
C=C1C(=O)O[C@H]2[C@H]1CC/C(Cn1cc(-c3ccsc3)nn1)=C\CC[C@@]1(C)O[C@@H]21	1 (yes)
COc1cccc(-c2nc3sccn3c2-c2ccnc(NCCCNS(=O)(=O)c3ccccc3)n2)c1	1 (yes)
O=S=Nc1ccc([N+](=O)[O-])cc1	0 (no)

Data request: Problem: For the compound COC(=O)[C@H]1[C@H](OC)[C@@H](OC(=O)/C=C/c2ccncc2)CC2CN3CCc4c([nH]c5cc(OC)ccc45)[C@@H]3C[C@@H]21 (stereo not given in full) , is growth under 50%?
Data returned: 0 (no)

Data request: Problem: For the compound COc1ccc(/C=C\c2cc(OC)c(OC)c(OC)c2)c(NS(=O)(=O)c2ccc(C(C)(C)C)cc2)c1O , is growth under 50%?
Data returned: 1 (yes)

Data request: Problem: For the compound COc1ccc(/C(=N/O)c2cc(OC)c(OC)c(OC)c2)c(OC)c1N , is growth under 50%?
Data returned: 1 (yes)

Data request: Problem: For the compound N#Cc1ncc(-c2ccc(F)c(F)c2F)c(NC2CCCCCC2)n1 , is growth under 50%?
Data returned: 0 (no)

Data request: Problem: For the compound c1ccc2c(c1)Oc1ccccc1C2C1c2ccccc2Oc2ccccc21 , is growth under 50%?
Data returned: 0 (no)
